The reported numbers originate from patent US4257941A.

- Tested on: Cynodon dactylon
- ASSAY METHOD TEXT: Herbicidal action (Example 25)
- Format: in vivo
- TEST CONDITIONS: preemergence, 4.0 kg/ha
Quick reference: percentage damage of the listed items.
ASSAY METRIC: percentage damage (percentage damage)

>>> print(df.to_string())
                                   compound       measure_unit  assay_result
0  c1ccc(CN2N=NC3C4CC(C5N=NC45)C32)cc1 (centres unmarked) [drawing 412]  percentage damage           100
1  c1ccc(N2C3C4CC(C5N=NC45)C32)cc1 (centres unmarked) [drawing 411]  percentage damage            90
2  Cc1ccc(N2N=NC3C4CC(C5N=NC45)C32)cc1 (centres unmarked) [drawing 413]  percentage damage           100
3  c1ccc(N2N=NC3C4CC(C5N=NC45)C32)cc1 (centres unmarked) [drawing 410]  percentage damage            90
4  O=S(=O)(c1ccccc1)N1C2C3CC(C4N=NC34)C21 (centres unmarked) [drawing 414]  percentage damage           100

====

# First cutting, growth height per record follows
- System: lawns
- ASSAY METHOD TEXT: Long-term action on lawns (Example 14)
- Assay type: in vivo
- TEST CONDITIONS: 2.0 kg/ha
ASSAY METRIC: First cutting, growth height (cm)

>>> print(df.to_string())
                                   compound                  assay_metric  assay_result
0  CC(=O)Nc1ccc(C)c(NS(=O)(=O)C(F)(F)F)c1 [S, reference compound]  First cutting, growth height          10.5
1  Cc1ccccc1N1N=NC2C3CC(C4N=NC34)C21 (stereo not drawn)  First cutting, growth height          12.5
2  Brc1ccc(N2N=NC3C4CC(C5N=NC45)C32)cc1 (stereo not drawn) [drawing 380]  First cutting, growth height          11.0
3  Fc1ccc(N2N=NC3C4CC(C5N=NC45)C32)cc1 (stereo not drawn)  First cutting, growth height           7.5
4  c1cc2sncc2cc1N1N=NC2C3CC(C4N=NC34)C21 (stereo not drawn) [drawing 382]  First cutting, growth height          14.5
5  Clc1ccc(N2N=NC3C4CC(C5NNC45)C32)cc1 (stereo not drawn) [drawing 381]  First cutting, growth height          11.5

====

- Tested on: Hordeum vulgare
- ASSAY METHOD TEXT: Growth height of young cereal plants (Example 11, Table A)
- Assay type: in vivo
- TEST CONDITIONS: soil treatment, 0.5 kg/ha
Reported Growth height values follow for various compounds
ASSAY METRIC: Growth height (cm)

                                   compound  assay_result
0  Clc1ccc(N2N=NC3C4CC(C5NNC45)C32)cc1 (stereo not shown) [drawing 369]            30
1  c1cc2sncc2cc1N1N=NC2C3CC(C4N=NC34)C21 (stereo not shown) [drawing 368]            36
2  Clc1cccc(N2N=NC3C4CC(C5N=NC45)C32)c1 (stereo not shown) [drawing 364]            43
3  O=[N+]([O-])c1cccc(N2N=NC3C4CC(C5N=NC45)C32)c1 (stereo not shown)            36
4  Brc1cccc(N2N=NC3C4CC(C5N=NC45)C32)c1 (stereo not shown) [drawing 366]            38
5  Brc1ccccc1N1N=NC2C3CC(C4N=NC34)C21 (stereo not shown) [drawing 365]            40
6  Clc1ccc(N2N=NC3C4CC(C5N=NC45)C32)c(Cl)c1 (stereo not shown)            40
7  FC(F)(F)c1ccc(Cl)c(N2N=NC3C4CC(C5N=NC45)C32)c1 (stereo not shown) [drawing 361]            40
8  Clc1ccc(CN2N=NC3C4CC(C5N=NC45)C32)cc1 (stereo not shown)            48
9  C[N+](C)(C)CCCl.[Cl-] [CCC, reference compound]            36

====

- System: Solanum nigrum
- ASSAY METHOD TEXT: Herbicidal action (Example 25)
- Format: in vivo
- TEST CONDITIONS: postemergence, 8.0 kg/ha
ASSAY METRIC: percentage damage (percentage damage)

>>> df
                                   compound     measured_on       assay_metric       measure_unit  assay_result
0    CC(C)OC(=O)Nc1cccc(Cl)c1 [drawing 426]  Solanum nigrum  percentage damage  percentage damage            38
1  c1csc(N2N=NC3C4CC(C5N=NC45)C32)n1 (centres unmarked) [drawing 432]  Solanum nigrum  percentage damage  percentage damage           100
2  c1ccc(N2N=NC3C4CC(C5N=NC45)C32)cc1 (centres unmarked) [drawing 431]  Solanum nigrum  percentage damage  percentage damage           100
3         C=CCN(CC=C)C(=O)CCl [drawing 428]  Solanum nigrum  percentage damage  percentage damage            20
4  CN(C)C(=O)Nc1ccc(Oc2ccccc2)cc1 [drawing 427]  Solanum nigrum  percentage damage  percentage damage           100

====

# Lookup of reported percentage damage keyed by entry
- Tested on: Solanum nigrum
- ASSAY METHOD TEXT: Herbicidal action (Example 25)
- Type: in vivo
- TEST CONDITIONS: preemergence, 4.0 kg/ha
ASSAY METRIC: percentage damage (percentage damage)

>>> print(df.to_string())
                                   compound       assay_metric       measure_unit  assay_result
0         C=CCN(CC=C)C(=O)CCl [drawing 428]  percentage damage  percentage damage            15
1  c1ccc(N2N=NC3C4CC(C5N=NC45)C32)cc1 (centres unmarked) [drawing 431]  percentage damage  percentage damage            95
2  c1csc(N2N=NC3C4CC(C5N=NC45)C32)n1 (centres unmarked) [drawing 432]  percentage damage  percentage damage            95
3    CC(C)OC(=O)Nc1cccc(Cl)c1 [drawing 426]  percentage damage  percentage damage            85
4  CN(C)C(=O)Nc1ccc(Oc2ccccc2)cc1 [drawing 427]  percentage damage  percentage damage            80

====

- Tested on: Cynodon dactylon
- ASSAY METHOD TEXT: Growth-regulating action, postemergence, greenhouse (Example 35, Table 1)
- Assay type: in vivo
- TEST CONDITIONS: 2.0 kg/ha
ASSAY METRIC: Growth height (cm)

>>> df
                                   compound       measured_on   assay_metric  measure_unit  assay_result
0  c1csc(N2C3C4CC(C5N=NC45)C32)n1 (stereo not drawn)  Cynodon dactylon  Growth height            cm             6
1  C[N+](C)(C)CCCl [[ClCH2CH2N(CH3⊕)3]Cl⊖, reference compound]  Cynodon dactylon  Growth height            cm             9
2  FC(F)(F)c1cccc(N2C3C4CC(C5N=NC45)C32)c1 (stereo not drawn) [drawing 434]  Cynodon dactylon  Growth height            cm             3
3  c1cc2sncc2cc1N1C2C3CC(C4N=NC34)C21 (stereo not drawn)  Cynodon dactylon  Growth height            cm             4
4  CN(C)NC(=O)CCC(=O)O [drawing 437, reference compound]  Cynodon dactylon  Growth height            cm             9
5  Clc1ccc(N2C3C4CC(C5N=NC45)C32)cc1Cl (stereo not drawn)  Cynodon dactylon  Growth height            cm             6

====

- System: lawns
- ASSAY METHOD TEXT: Long-term action on lawns (Example 14)
- Assay type: in vivo
- TEST CONDITIONS: 1.0 kg/ha
# Second cutting, green weight listing for each entry below
ASSAY METRIC: Second cutting, green weight (g)

>>> df
                                   compound  assay_result
0  Brc1ccc(N2N=NC3C4CC(C5N=NC45)C32)cc1 (stereo not drawn) [drawing 380]          25.1
1  c1cc2sncc2cc1N1N=NC2C3CC(C4N=NC34)C21 (stereo not drawn) [drawing 382]          25.8
2  Fc1ccc(N2N=NC3C4CC(C5N=NC45)C32)cc1 (stereo not drawn)          21.4
3  Clc1ccc(N2N=NC3C4CC(C5NNC45)C32)cc1 (stereo not drawn) [drawing 381]          20.5
4  Cc1ccccc1N1N=NC2C3CC(C4N=NC34)C21 (stereo not drawn)          22.0
5  CC(=O)Nc1ccc(C)c(NS(=O)(=O)C(F)(F)F)c1 [S, reference compound]          27.6
